Below are pIC50 values for High affinity nerve growth factor receptor (Homo sapiens, UniProt P04629) collected from several publications.
pIC50: −log10 of the molar value.

Completed entries (count: 3):
compound="O=C(Nc1c2c(nn1-c1ccccc1)CCC2)N[C@@H]1CN(CC(F)(F)F)C[C@H]1c1ccc(F)cc1 (relative stereo)" result="> 7.00"
compound=COCCN1C[C@@H](NC(=O)Nc2ccc(-c3cccc(S(C)(=O)=O)c3)nc2C)[C@H](c2ccc(F)c(F)c2)C1 result="6.00 to 7.00"
compound=CC(C)n1cc(C(=O)Nc2ccc(Oc3ccnc4cc(OC5COC5)c5c(c34)OCCO5)c(F)c2)c(=O)n(-c2ccc(F)cc2)c1=O result="6.30 to 7.30"

The measured pIC50 associated with "CC(=O)Nc1ccc(-c2cc(OC3CCOCC3)c3c(C)n[nH]c3c2)cc1OCCNC(=O)OC(C)C" reads 7.51

Reported pIC50 of O=C(Nc1c2c(nn1-c1ccccc1)CCC2)N[C@@H]1CN(CC(F)(F)F)C[C@H]1c1ccccc1Cl (relative stereo) : 5.00 to 6.00

# pIC50 (compound: "Cc1nn(C(=O)NCCc2ccc(F)cc2)c(C)c1Cc1c[nH]c2ncc(Cl)cc12" ) is > 6.00

"COCCN1C[C@@H](NC(=O)Nc2cc(-c3ccc(C(=O)O)cc3)nn2C)[C@H](c2ccc(F)c(F)c2)C1" yielded pIC50 of > 7.00

* * *

Ok so here's the combined literature set: IC50 for UniProt:P04629.
Property Measured: IC50 (µM)

(I) CNC(=O)c1ccc(-c2cc(OC3CCOCC3)c3c(N)n[nH]c3c2)cc1N1CCN(c2cccnc2)CC1
(II) COc1cc(Cn2c(N)nc3cc(-c4cnn(C)c4)cnc32)ccc1OCc1ccc(C(F)(F)C(F)(F)F)cc1
(III) CC(=O)N1CCN(c2ccc(NC(=O)c3coc4c3C(=O)NC(C)(C)C4)c(OC(C)C)n2)[C@H](CO)C1
## Input Order the records so the highest IC50 appears first and the lowest last. State the ranking by listing the labels in the requested order.
## Output I, III, II

* * *

Collected set of IC50 measured with UniProtKB P04629 across studies.

Tested on UniProtKB P04629, the item COc1cc(Cc2c[nH]c3ncc(Cl)cc23)c(F)cc1OC(C)c1nc2ccccc2[nH]1 (stereo not shown) showed IC50 equal to ≤ 10000 nM

Hey, UniProtKB P04629 data for C=C1c2ncc(F)cc2[C@@H]2[C@H]3C[C@H]3CN2c2ccn3ncc(c3n2)C(=O)N[C@@H]1C (single isomer, unassigned) : IC50 came out at 100 to 1000 nM

For the molecule "CN1CCC(N2CCN(c3cc(-c4cc(OC5CCOCC5)c5c(N)n[nH]c5c4)ccc3C(N)=O)CC2)CC1" , the measured IC50 on UniProtKB P04629 was 3460 nM

Item "COCCN1C[C@@H](NC(=O)Nc2cc(-c3cnn(C)c3)nn2C)[C@H](c2ccc(F)c(F)c2)C1" ; assay system UniProtKB P04629; IC50 reported as < 100 nM

* * *

The following compounds were reported with IC50 values on High affinity nerve growth factor receptor (Homo sapiens) in different studies.

Completed entries (count: 3):
mol_smiles=Fc1cc(Cl)cc(CNc2ccc(Cc3c[nH]c4ncncc34)c(F)n2)c1 result="≤ 10 µM"
mol_smiles=C[C@H]1CNC(=O)c2cnn3cc(-c4cnn(C)c4)c(nc23)NCc2cc(F)cnc2O1 result="> 10 µM"
mol_smiles=CCOc1nn(-c2ccccc2)c(NC(=O)N[C@@H]2CN(c3ccccc3OC)C[C@H]2c2ccccc2)c1C result="0.1 to 1 µM"

Next item in the queue.
Lookup result for "COc1cc2nccc(Oc3ncc(NC(=O)c4cn(C(C)C)nc(-c5ccc(F)cc5)c4=O)cn3)c2cc1OC" ; measured IC50: 0.007 µM
